The reported numbers originate from patent US20250154686A1.

# TARGET OR SYSTEM: Bcl-2 protein (Recombinant Human Bcl-2 Protein) (Homo sapiens)
# Construct: purchased Novus Biologicals NBP2-34889
# Sequence (P10415 whole entry): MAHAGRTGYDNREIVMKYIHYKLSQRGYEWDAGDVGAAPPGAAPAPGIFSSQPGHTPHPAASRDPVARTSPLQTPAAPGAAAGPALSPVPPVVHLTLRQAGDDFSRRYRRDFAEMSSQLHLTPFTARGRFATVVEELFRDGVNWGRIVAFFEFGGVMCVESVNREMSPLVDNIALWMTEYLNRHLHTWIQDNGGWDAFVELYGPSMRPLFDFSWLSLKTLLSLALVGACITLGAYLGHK
# TEST DESCRIPTION: AS-MS evaluation of binding of the Example 4 mixture library (1200 compounds/well) to Bcl-2, ASMS ratio (%)
# ASSAY CONTEXT: replicate n = 2; mixture library; value belongs to the MS peak assigned to the compound
Exercise: state measured ASMS ratio (%) n = 2 for each of the compounds provided.

- CCOc1cccc(-c2ccc(C(=O)N3CCN(c4ccc(C(=O)NS(=O)(=O)C(C)(C)C)nn4)CC3)cc2C)c1 [Compound B2L003-01]: 0.0%

Hello, I would appreciate it if you could give ASMS ratio (%) n = 2 for each entry below.
1. CCOc1cncc(-c2ccccc2CN2CCN(c3ccc(C(=O)NS(C)(=O)=O)cc3)CC2)c1 [Compound B2I046-01]
2. CCOc1cccc(-c2csc(C(=O)N3CCN(c4ccc(C(=O)NS(=O)(=O)C(C)(C)C)nn4)CC3)c2)c1 [Compound B2L001-01]
3. CCOc1cccc(-c2ccc(CN3CCN(c4ccc(C(=O)NS(=O)(=O)C(C)(C)C)nn4)CC3)cc2F)c1 [Compound B2L077-01]
4. CCOc1cncc(-c2ccccc2CN2CCN(c3ccc(C(=O)NS(=O)(=O)C(C)(C)C)nn3)CC2)c1 [Compound B2L072-01]
5. CCOc1cccc(-c2ccc(CN3CCN(c4ccc(C(=O)NS(C)(=O)=O)cc4)CC3)c(CC)c2)c1 [Compound B2I049-01]
6. CCOc1cncc(-c2cc(C(=O)N3CCN(c4ccc(C(=O)NS(=O)(=O)C(C)(C)C)nn4)CC3)cc(C(C)(C)C)c2)c1 [Compound B2L016-01]

**A:**
1: 1.5%; 2: 0.0%; 3: 0.0%; 4: 8.3%; 5: 0.0%; 6: −5.4%

Hello, I would appreciate it if you could give ASMS ratio (%) n = 2 for each entry below.
1. CCOc1cccc(-c2ccccc2CCC(=O)N2CCN(c3ccc(C(=O)NS(=O)(=O)C(C)(C)C)nn3)CC2)c1 [Compound B2L011-01]
2. CCOc1cncc(C#Cc2ccccc2C(=O)N2CCN(c3ccc(C(=O)NS(=O)(=O)C(C)(C)C)cc3)CC2)c1 [Compound B2L030-01]
3. CCOc1cncc(-c2ccc(CN3CCN(c4ccc(C(=O)NS(=O)(=O)C(C)(C)C)cc4)CC3)cc2F)c1 [Compound B2L052-01]
4. CCOc1cncc(-c2ccc(CN3CCN(c4ccc(C(=O)NS(C)(=O)=O)nn4)CC3)cc2F)c1 [Compound B2I078-01]
5. CCOc1cccc(-c2ccccc2CCC(=O)N2CCN(c3ccc(C(=O)NS(=O)(=O)C(C)(C)C)cc3)CC2)c1 [Compound B2L033-01]
6. CCOc1cncc(-c2ccc(CN3CCN(c4ccc(C(=O)NS(=O)(=O)C(C)(C)C)cc4)CC3)c(OC)c2)c1 [Compound B2L054-01]

**A:**
1: 0.0%; 2: 0.0%; 3: 1.0%; 4: 0.0%; 5: 0.0%; 6: 0.0%

----------
Exercise: state measured ASMS ratio (%) n = 2 for each of the compounds provided.
# TARGET OR SYSTEM: Bcl-2 protein (Recombinant Human Bcl-2 Protein) (Homo sapiens)
# Construct: purchased Novus Biologicals NBP2-34889
# TEST DESCRIPTION: AS-MS evaluation of binding of the Example 4 mixture library (1200 compounds/well) to Bcl-2, ASMS ratio (%)
# ASSAY CONTEXT: AS-MS, Example 4 mixture library, Bcl-2, replicate n = 2
Give bare numbers, in %.

Known ASMS ratio (%) n = 2 results, listed for orientation:
• CCOc1cncc(-c2cnn(-c3cc(C(=O)N4CCN(c5ccc(C(=O)NS(=O)(=O)c6ccc(NCCSc7ccccc7)c(C(F)(F)F)c6)nn5)CC4)cc(C(F)(F)F)c3)c2)c1 [Compound B2R022-01] = 15.8
• CCOc1cncc(C#Cc2ccccc2C(=O)N2CCN(c3ccc(C(=O)NS(=O)(=O)CCC(F)(F)F)cc3)CC2)c1 [Compound B2N030-01] = 0.0
• CCOc1cccc(C#Cc2ccccc2CN2CCN(c3ccc(C(=O)NS(=O)(=O)C(C)(C)C)nn3)CC2)c1 [Compound B2L095-01] = 0.0
• CCOc1cccc(-c2cc(CN3CCN(c4ccc(C(=O)NS(=O)(=O)CCC(F)(F)F)cc4)CC3)cc(OC(F)(F)F)c2)c1 [Compound B2N063-01] = −3.8
• CCOc1cccc(-c2ccc(C(C)N3CCN(c4ccc(C(=O)NS(=O)(=O)CCC(F)(F)F)cc4)CC3)cc2)c1 (stereo not drawn) [Compound B2N097-01] = 0.0

**Q:** State its ASMS ratio (%) n = 2 for this compound: CCOc1cccc(C#Cc2ccccc2CN2CCN(c3ccc(C(=O)NS(=O)(=O)c4ccc(NCCSc5ccccc5)c(C(F)(F)F)c4)cc3)CC2)c1 [Compound B2R069-01]
**A:** −18.5
